target: Cathepsin D (Homo sapiens, UniProt P07339); test: Compound was evaluated for the inhibition of cathepsin D at concentration of 4.15 ug/mL
Sequence (P07339 65-162 limits assumed): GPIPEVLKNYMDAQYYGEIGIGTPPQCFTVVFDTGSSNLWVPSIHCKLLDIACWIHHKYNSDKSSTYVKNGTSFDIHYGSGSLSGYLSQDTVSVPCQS
Sequence (P07339 169-412 limits assumed): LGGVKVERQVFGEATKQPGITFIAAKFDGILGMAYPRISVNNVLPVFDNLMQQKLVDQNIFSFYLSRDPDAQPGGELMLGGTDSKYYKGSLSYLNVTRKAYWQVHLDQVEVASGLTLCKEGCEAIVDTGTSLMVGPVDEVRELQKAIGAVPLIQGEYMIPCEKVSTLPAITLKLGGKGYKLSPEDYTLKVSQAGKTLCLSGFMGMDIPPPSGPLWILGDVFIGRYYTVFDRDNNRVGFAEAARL
Reported Property: pIC50
Numbers only, as −log10 of the molar value.

// lookup pIC50 for CCCc1c(COc2ccc(/C=C3\SC(=S)NC3=O)cc2)ccc(C(C)=O)c1OC(C)=O
4.48

* * *

target: Cytosol aminopeptidase (Homo sapiens) (UniProt P28838); experiment: Compound was evaluated for the inhibition of leucine amino peptidase.; set-up: concentration or dose not given beside the values; settings: concentration not given here
Sequence (P28838 whole entry): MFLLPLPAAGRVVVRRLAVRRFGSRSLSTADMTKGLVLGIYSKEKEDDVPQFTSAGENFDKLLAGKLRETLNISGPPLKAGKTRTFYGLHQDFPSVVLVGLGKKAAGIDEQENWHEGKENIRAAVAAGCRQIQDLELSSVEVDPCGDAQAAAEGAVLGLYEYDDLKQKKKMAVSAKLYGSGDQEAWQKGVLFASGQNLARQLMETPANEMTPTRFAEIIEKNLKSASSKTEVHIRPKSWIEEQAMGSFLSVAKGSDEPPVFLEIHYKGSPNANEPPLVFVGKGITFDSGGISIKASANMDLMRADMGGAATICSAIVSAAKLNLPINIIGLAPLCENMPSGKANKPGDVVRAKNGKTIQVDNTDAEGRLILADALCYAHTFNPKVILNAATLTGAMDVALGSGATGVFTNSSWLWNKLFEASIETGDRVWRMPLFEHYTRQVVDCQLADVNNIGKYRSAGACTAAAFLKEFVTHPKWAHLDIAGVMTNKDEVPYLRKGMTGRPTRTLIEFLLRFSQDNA
Reported Property: inhibition
A bare number is not enough; add the unit after it.

# Structure, Result
records = [
    ("CCCc1c(OCc2ccc(/C=C3\\SC(=S)NC3=O)cc2)ccc(C(=O)OC)c1O", "6.3%"),
    ("O=C1NC(=S)S/C1=C\\c1ccc(OCc2ccc(C(=O)c3ccccc3)cc2)cc1", "12%"),
]

Count: 6. Required value per item: inhibition.
1. CCCc1c(OCc2ccc(/C=C3\SC(=S)NC3=O)cc2)ccc(C(=O)c2cccnc2)c1O
2. CCCc1c(OCc2cccc(/C=C3/SC(=S)NC3=O)c2)ccc(C(C)=O)c1O
3. CCCc1c(COc2ccc(/C=C3\SC(=S)NC3=O)cc2)ccc(C(=O)CC)c1O
4. CCCc1c(OCc2ccc(/C=C3\SC(=S)NC3=O)cc2)ccc(C(C)=O)c1OC
5. CCCc1c(OCc2ccc(/C=C3\SC(=S)NC3=O)cc2)ccc(C(=O)O)c1O
6. CCCc1c(O)cccc1OCc1ccc(/C=C2\SC(=S)NC2=O)cc1

1: 21%; 2: 9%; 3: 4.4%; 4: 10%; 5: 2%; 6: 22%

Count: 8. Required value per item: inhibition.
1. CCc1c(COc2ccc(/C=C3\SC(=S)NC3=O)cc2)ccc(C(C)=O)c1O
2. CCCc1c(OCc2ccc(/C=C3\SC(=S)NC3=O)cc2)ccc(C(C)=O)c1O
3. CCCc1c(OC)cccc1OCc1ccc(/C=C2\SC(=S)NC2=O)cc1
4. CCCc1c(COc2ccc(/C=C3\SC(=S)NC3=O)cc2)ccc(C(C)=O)c1OC(C)=O
5. O=C1NC(=S)S/C1=C\c1ccc(COc2ccc(C(=O)c3ccccc3)cc2)cc1
6. CCCc1c(COc2ccc(/C=C3\SC(=S)NC3=O)cc2)ccc(C(C)=O)c1O
7. CCCc1c(OCc2ccc(/C=C3\SC(=S)NC3=O)cc2)ccc(C(=O)c2ccncc2)c1O
8. CCCc1c(COc2cccc(/C=C3/SC(=S)NC3=O)c2)ccc(C(C)=O)c1O

1. 7.2%
2. 9.6%
3. 3%
4. 17%
5. 8%
6. 15%
7. 32%
8. 20.3%

Count: 6. Required value per item: inhibition.
1. CCCc1c(COc2ccc(/C=C3\SC(=S)NC3=O)cc2)ccc(C(C)=O)c1OC
2. CCCc1c(OCc2ccc(/C=C3\SC(=S)NC3=O)cc2)ccc(C(=O)c2ccccc2O)c1O
3. CCCc1cc(C(=O)c2ccccc2)ccc1OCc1ccc(/C=C2\SC(=S)NC2=O)cc1
4. O=C1NC(=S)S/C1=C\c1ccc(COc2ccc(C(=O)c3ccccc3)c(O)c2Cc2ccccc2)cc1
5. CCCc1c(OCc2ccc(/C=C3\SC(=S)NC3=O)cc2)ccc(C(=O)c2cncc(C(=O)O)c2)c1O
6. CCCc1c(COc2ccc(/C=C3\SC(=S)NC3=O)cc2)ccc(C(=O)c2ccccc2)c1O

17.2%
47%
8%
-4%
19%
9%

Count: 2. Required value per item: inhibition.
1. CC(=O)c1ccc(COc2ccc(/C=C3\SC(=S)NC3=O)cc2)cc1O
2. CCCc1c(OCc2ccc(/C=C3\SC(=S)NC3=O)cc2)ccc(C(C)=O)c1OC(C)=O

["7%", "6%"]
